biological target: HLA-B*51:01; assay: IEDB peptide-MHC binding, purified MHC/competitive/radioactivity; filed as Kd, often an IC50 or EC50 that approximates it; bounds were set here for any values at or beyond the usual limits of such assays; conditions: source organism: Dengue virus 3 Martinique/1243/1999
pKd: −log10 of the molar value.
Please provide measured pKd for the entries that follow.

These solved cases illustrate the format of a correct answer.
NPHLPEKKI; ≤ 4.54
LGLMALKLI; 5.08

// next entry
Ask: I'd like to know its pKd. The sequence in question is "LPLPWTSGAT"
Reply: ≤ 4.67

====

target: HLA-A*11:01; test: IEDB peptide-MHC binding, purified MHC/competitive/radioactivity; filed as Kd, often an IC50 or EC50 that approximates it; bounds were set here for any values at or beyond the usual limits of such assays; details: source organism: Lymphocytic choriomeningitis virus (strain Traub)
readout: pKd
Give bare numbers, as −log10 of the molar value.

Ask: What does the record list as pKd for "KCHDHYLCR" ?
Reply: 5.49

====

molecular target: HLA-A*03:01; assay: IEDB peptide-MHC binding, purified MHC/competitive/radioactivity; filed as Kd, often an IC50 or EC50 that approximates it; bounds were set here for any values at or beyond the usual limits of such assays; conditions: source organism: Dengue virus 1 Nauru/West Pac/1974
readout: Kd
Answers without a unit are incomplete; give the number and then its unit.

Ask: # Kd lookup, item "LTMFLITENK"
Reply: 4.57 nM

====

molecular target: HLA-B*44:02; experiment: IEDB peptide-MHC binding, purified MHC/competitive/radioactivity; filed as Kd, often an IC50 or EC50 that approximates it; bounds were set here for any values at or beyond the usual limits of such assays; conditions: source organism: Dengue virus 1 Brazil/97-11/1997
readout: pKd
One number for each entry, as −log10 of the molar value.

DEDNPYKTW; 6.28

From here, focus on the item given below.
Ask: Give the measured pKd of "AICSAVPVDW" .
Reply: 6.05

====

biological target: HLA-A*26:01; assay: IEDB peptide-MHC binding, purified MHC/competitive/radioactivity; filed as Kd, often an IC50 or EC50 that approximates it; bounds were set here for any values at or beyond the usual limits of such assays; conditions: source organism: Lassa virus Josiah
readout: pKd
One number for each entry, as −log10 of the molar value.

Ask: Recorded pKd for "DCIMTSYQYL" , please?
Reply: 4.90

====

biological target: HLA-A*03:01; assay: IEDB peptide-MHC binding, purified MHC/competitive/fluorescence; filed as Kd, often an IC50 or EC50 that approximates it; bounds were set here for any values at or beyond the usual limits of such assays; conditions: source organism: Entamoeba histolytica HM-1:IMSS
readout: Kd

Ask: Which Kd value belongs to "CLSPVVAGL" ?
Reply: ≥ 20 µM

====

biological target: HLA-A*01:01; assay: IEDB peptide-MHC binding, purified MHC/direct/fluorescence; filed as Kd, often an IC50 or EC50 that approximates it; bounds were set here for any values at or beyond the usual limits of such assays; details: source organism: SARS-CoV1
readout: pKd
Give bare numbers, as −log10 of the molar value.

LTDDMIAAY; 8.15

# ---- query sequence ----
Ask: Recorded pKd for "RVDFCGKGY" , please?
Reply: 6.00

====

target: HLA-A*02:01; assay: IEDB peptide-MHC binding, purified MHC/competitive/fluorescence; filed as Kd, often an IC50 or EC50 that approximates it; bounds were set here for any values at or beyond the usual limits of such assays; settings: source organism: Lassa virus Josiah
readout: Kd (nM)
Numbers only, in nM.

Ask: Form field: reported Kd of "GILKSILKV"
Reply: 39.1
